System: M14
Conditions: read-out: LC50; M14, Melanoma, 48 h
measure: CC50 (µM)
Give the value in µM but do not write µM after it.

Note to self: CC50 recorded for CC(=O)C=CSc1nc(N)nc2nc[nH]c12 [trans-AVTG, 6-(2-acetylvinylthio) guanine] was 53.5

====

Tested on: U251
Details: read-out: LC50; U251, CNS, 48 h
measure: CC50

Note to self: CC50 recorded for CC(=O)C=CSc1nc(N)nc2nc[nH]c12 [trans-AVTG, 6-(2-acetylvinylthio) guanine] was > 100 µM

====

Test system: A549/ATCC
Settings: read-out: LC50; A549/ATCC, Non-Small Cell Lung, 48 h
measure: CC50

Note to self: CC50 recorded for CC(=O)C=CSc1nc(N)nc2nc[nH]c12 [trans-AVTG, 6-(2-acetylvinylthio) guanine] was > 100 µM
